system: CDK9 CCNK (human) (UniProt O75909+P50750)
Sequence (O75909 whole entry, looked up): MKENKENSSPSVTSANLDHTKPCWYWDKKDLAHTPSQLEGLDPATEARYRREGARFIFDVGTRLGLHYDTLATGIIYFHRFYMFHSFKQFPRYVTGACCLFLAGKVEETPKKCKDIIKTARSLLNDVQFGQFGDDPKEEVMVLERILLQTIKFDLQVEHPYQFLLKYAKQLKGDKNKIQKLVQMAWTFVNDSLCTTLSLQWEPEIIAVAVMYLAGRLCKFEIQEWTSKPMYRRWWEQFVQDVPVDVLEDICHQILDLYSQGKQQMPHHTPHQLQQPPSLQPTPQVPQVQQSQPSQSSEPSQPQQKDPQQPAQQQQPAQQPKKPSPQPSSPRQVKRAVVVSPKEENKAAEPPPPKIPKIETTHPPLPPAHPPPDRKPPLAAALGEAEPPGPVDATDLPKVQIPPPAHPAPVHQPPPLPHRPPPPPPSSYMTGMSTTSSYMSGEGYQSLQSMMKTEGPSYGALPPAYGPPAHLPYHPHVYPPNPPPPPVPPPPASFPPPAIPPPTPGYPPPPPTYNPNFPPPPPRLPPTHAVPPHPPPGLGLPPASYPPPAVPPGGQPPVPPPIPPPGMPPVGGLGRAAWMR
Sequence (P50750 whole entry, looked up): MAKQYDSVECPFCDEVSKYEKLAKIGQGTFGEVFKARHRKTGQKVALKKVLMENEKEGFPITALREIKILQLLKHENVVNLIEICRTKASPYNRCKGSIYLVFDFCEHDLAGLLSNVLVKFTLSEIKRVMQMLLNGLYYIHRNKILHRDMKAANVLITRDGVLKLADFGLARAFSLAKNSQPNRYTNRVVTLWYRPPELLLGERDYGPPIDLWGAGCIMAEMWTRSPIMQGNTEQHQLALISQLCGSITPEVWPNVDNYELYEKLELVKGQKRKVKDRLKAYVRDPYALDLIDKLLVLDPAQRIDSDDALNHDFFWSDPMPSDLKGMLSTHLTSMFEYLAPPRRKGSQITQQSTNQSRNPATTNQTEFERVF
assay.comment: radiometric filter-binding kinase assay, Kinase HotSpot
details: compound 0.5 µM; ATP 10 µM
Each entry below lists one item and its recorded residual activity value.
Answer with a number only, understood to be in %.

Use these answered entries as a reference point.
| smiles.notation | system | result.units | obs.value |
| --- | --- | --- | --- |
| Nc1ncnc2c1c(-c1ccc(Oc3ccccc3)cc1)cn2C1CCCC1 | CDK9 CCNK (human) (UniProt O75909+P50750) | % | 104 |
| N#C/C(=C(/N)Sc1ccc(N)cc1)c1ccccc1C(F)(F)F | CDK9 CCNK (human) (UniProt O75909+P50750) | % | 98 |
| COc1ccc(COc2ccc(Cc3cnc(N)nc3N)cc2OC)cc1 | CDK9 CCNK (human) (UniProt O75909+P50750) | % | 102 |
| Cc1ccc(Nc2nccc(N(C)c3ccc4c(C)n(C)nc4c3)n2)cc1S(N)(=O)=O | CDK9 CCNK (human) (UniProt O75909+P50750) | % | 92.7 |
| CC(=O)c1ccc(N2CCOCC2)cc1O | CDK9 CCNK (human) (UniProt O75909+P50750) | % | 106 |
| c1ccc(-c2n[nH]c3c2oc2ccccc23)cc1 | CDK9 CCNK (human) (UniProt O75909+P50750) | % | 86.2 |
| CC(C)N(CCC(=O)c1ccc2ccccc2c1)Cc1ccccc1 | CDK9 CCNK (human) (UniProt O75909+P50750) | % | 99.5 |
| Nc1ncnc2[nH]nc(Nc3ccc(F)cc3)c12 | CDK9 CCNK (human) (UniProt O75909+P50750) | % | 92.4 |
| CCN(CC)C(=O)c1ccc(Nc2nc(OCC3CCCCC3)c3nc[nH]c3n2)cc1 | CDK9 CCNK (human) (UniProt O75909+P50750) | % | 72.6 |
| COc1ccc2c(c[n+](C)c3c4cc5c(cc4ccc23)OCO5)c1OC | CDK9 CCNK (human) (UniProt O75909+P50750) | % | 95.6 |

Recorded result, "CNC(=O)c1cc(Oc2ccc(NC(=O)Nc3ccc(Cl)c(C(F)(F)F)c3)cc2)ccn1" , residual activity: 101

Recorded result, "COc1cc2ncnc(Nc3cccc(Cl)c3)c2cc1OC" , residual activity: 106

Recorded result, "O=C1NC(=O)/C(=C/c2ccc3c(c2)OC(F)(F)O3)S1" , residual activity: 93.5

Recorded result, "O=C(Nc1cccc(Nc2nccc(Nc3cccc(C(F)(F)F)c3)n2)c1)C1CC1" , residual activity: 107

Recorded result, "Oc1cccc(-c2nc(N3CCOCC3)c3oc4ncccc4c3n2)c1" , residual activity: 96
